measurement-target: Human TOP2A (Homo sapiens)
Construct: purchased TopoGEN (Buena Vista, CO)
Sequence (P11388 whole entry): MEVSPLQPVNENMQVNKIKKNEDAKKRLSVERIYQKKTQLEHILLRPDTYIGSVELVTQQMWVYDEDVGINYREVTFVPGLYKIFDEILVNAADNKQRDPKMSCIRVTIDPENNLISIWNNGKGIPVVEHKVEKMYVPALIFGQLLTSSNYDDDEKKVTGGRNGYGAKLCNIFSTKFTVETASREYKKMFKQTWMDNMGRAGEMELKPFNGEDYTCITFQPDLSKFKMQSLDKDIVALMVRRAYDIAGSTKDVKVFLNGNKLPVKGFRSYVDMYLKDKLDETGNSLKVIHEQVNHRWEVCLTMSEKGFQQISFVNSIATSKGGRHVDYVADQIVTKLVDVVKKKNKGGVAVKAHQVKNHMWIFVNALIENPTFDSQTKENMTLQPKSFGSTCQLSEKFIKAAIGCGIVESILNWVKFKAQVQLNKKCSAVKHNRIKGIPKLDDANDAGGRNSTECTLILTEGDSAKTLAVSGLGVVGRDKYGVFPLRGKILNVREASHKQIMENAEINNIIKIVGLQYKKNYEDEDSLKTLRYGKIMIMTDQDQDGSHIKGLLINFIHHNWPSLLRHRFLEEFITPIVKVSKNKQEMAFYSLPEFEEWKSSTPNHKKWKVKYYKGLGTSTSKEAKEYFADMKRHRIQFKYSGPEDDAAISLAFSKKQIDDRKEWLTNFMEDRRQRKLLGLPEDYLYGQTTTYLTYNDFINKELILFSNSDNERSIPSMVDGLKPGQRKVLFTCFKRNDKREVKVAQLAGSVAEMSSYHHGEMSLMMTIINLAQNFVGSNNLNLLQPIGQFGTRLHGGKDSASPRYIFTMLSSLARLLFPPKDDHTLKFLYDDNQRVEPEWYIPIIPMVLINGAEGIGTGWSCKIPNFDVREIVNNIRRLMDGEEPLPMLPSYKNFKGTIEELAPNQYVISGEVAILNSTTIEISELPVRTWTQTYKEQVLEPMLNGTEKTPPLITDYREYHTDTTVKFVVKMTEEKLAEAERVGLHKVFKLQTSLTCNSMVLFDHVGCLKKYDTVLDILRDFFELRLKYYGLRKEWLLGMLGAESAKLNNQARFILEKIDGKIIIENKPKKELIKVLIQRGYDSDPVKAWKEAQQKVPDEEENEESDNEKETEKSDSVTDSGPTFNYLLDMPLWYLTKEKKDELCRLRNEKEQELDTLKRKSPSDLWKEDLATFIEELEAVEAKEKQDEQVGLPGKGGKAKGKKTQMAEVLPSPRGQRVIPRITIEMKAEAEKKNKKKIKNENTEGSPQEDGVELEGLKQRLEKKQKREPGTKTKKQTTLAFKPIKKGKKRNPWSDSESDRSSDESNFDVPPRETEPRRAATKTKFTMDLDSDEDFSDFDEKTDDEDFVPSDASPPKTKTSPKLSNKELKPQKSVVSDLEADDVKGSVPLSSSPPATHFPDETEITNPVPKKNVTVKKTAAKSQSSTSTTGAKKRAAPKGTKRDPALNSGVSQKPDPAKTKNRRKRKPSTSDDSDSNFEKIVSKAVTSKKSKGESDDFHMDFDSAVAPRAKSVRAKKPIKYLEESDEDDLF
run-description: TOP2A DNA decatenation assay (kDNA, agarose gel)
Type: biochemical
run-conditions: Table 1; decatenation, 30 μM fixed concentration
Known % Inhibition TOP2A (30 μM) of a selection of molecules

- chemical-structure: "CC(C)(C)C(=O)Nc1ccc2c(-c3cc(F)ccc3O)ccnc2c1O"
  measurement-target: "Human TOP2A (Homo sapiens)"
  % Inhibition TOP2A (30 μM), %: 0.0
- chemical-structure: "CC(C)(C)C(=O)Nc1ccc2c(-c3ccccc3)ccnc2c1O"
  measurement-target: "Human TOP2A (Homo sapiens)"
  % Inhibition TOP2A (30 μM), %: 97.0
- chemical-structure: "CC(=O)Nc1ccc2c(-c3cncnc3)ccnc2c1O"
  measurement-target: "Human TOP2A (Homo sapiens)"
  % Inhibition TOP2A (30 μM), %: 0.0
- chemical-structure: "O=C(CN1CCOCC1)Nc1ccc2c(-c3cc(F)ccc3O)ccnc2c1O"
  measurement-target: "Human TOP2A (Homo sapiens)"
  % Inhibition TOP2A (30 μM), %: 4.0
- chemical-structure: "CC(=O)Nc1ccc2c(-c3ccco3)ccnc2c1O"
  measurement-target: "Human TOP2A (Homo sapiens)"
  % Inhibition TOP2A (30 μM), %: 0.0
- chemical-structure: "CC(=O)Nc1ccc2c(-c3ccccc3)ccnc2c1O"
  measurement-target: "Human TOP2A (Homo sapiens)"
  % Inhibition TOP2A (30 μM), %: 25.0
- chemical-structure: "CC(=O)Nc1ccc2c(-c3cc(Cl)ccc3O)ccnc2c1O"
  measurement-target: "Human TOP2A (Homo sapiens)"
  % Inhibition TOP2A (30 μM), %: 0.0
